Tested on: C. difficile (630, ATCC BAA-1382)
MIC by entry:

{"compound": "O=c1c2nc([N+](=O)[O-])cn2ccn1CCc1ccc(OC(F)(F)F)cc1 [17m]", "MIC": "64 µg/mL"}
{"compound": "CC(=O)OCCn1c(C)cn2cc([N+](=O)[O-])nc2c1=O [25b]", "MIC": "> 64 µg/mL"}
{"compound": "CC(=O)OCCOc1nc(-c2ccccc2)cn2cc([N+](=O)[O-])nc12 [24c]", "MIC": "> 64 µg/mL"}
{"compound": "O=c1[nH]ccn2cc([N+](=O)[O-])nc12 [17a, 2-Nitroimidazo[1,2-a]pyrazin-8(7H)-one]", "MIC": "> 64 µg/mL"}
